Assay: Sprague Dawley (SD) rat absorption test (pharmacokinetics)
Format: in vivo, SD rats
Conditions: female, Sprague-Dawley, rat, plasma, po, 30 mg/kg, female SD rats, single
Result type: Cmax (µM)
Reply with just the number (in µM).

Query string: Cmax lookup needed for CNC(=O)[C@H](C)Cn1cnc2ccc(-c3cnc(OC)c(NS(=O)(=O)c4ccc(F)cc4F)c3)cc2c1=O , thanks.
Result string: 39.1

----------
Test: Sprague Dawley (SD) rat absorption test (pharmacokinetics)
Assay type: in vivo, SD rats
Conditions: Sprague-Dawley, rat, plasma; female SD rats, oral, 10 mg/kg once a day, Day 7
Result type: Tmax at 7 days (min)
Give a bare numeral; the unit min is implied.

Query string: # get_value(readout='Tmax at 7 days', item= CNC(=O)[C@H](C)Cn1cnc2ccc(-c3cnc(OC)c(NS(=O)(=O)c4ccc(F)cc4F)c3)cc2c1=O )
Result string: 30

----------
Assay: Beagle dog absorption test (pharmacokinetics)
Assay type: in vivo, Beagle dogs
Conditions: both sexes, dog, plasma; male and female Beagle dogs, oral, 3 mg/kg, single
Result type: Tmax (h)
Report the figure in h without appending any unit label.

Query string: I am curious: what Tmax value has been reported for CNC(=O)[C@H](C)Cn1cnc2ccc(-c3cnc(OC)c(NS(=O)(=O)c4ccc(F)cc4F)c3)cc2c1=O ?
Result string: 3.08

----------
Assay: Beagle dog absorption test (pharmacokinetics)
Assay type: in vivo, Beagle dogs
Details: both sexes, dog, plasma; male and female Beagle dogs, oral, 1 mg/kg, day 1
Result type: half-life (h)
Report the value in h with no unit label.

Query string: Quick one: half-life of CNC(=O)[C@H](C)Cn1cnc2ccc(-c3cnc(OC)c(NS(=O)(=O)c4ccc(F)cc4F)c3)cc2c1=O ?
Result string: 5

----------
Assay: Sprague Dawley (SD) rat absorption test (pharmacokinetics)
Format: in vivo, SD rats
Settings: male, Sprague-Dawley, rat, plasma, po, 30 mg/kg, male SD rats, single
Result type: half-life (h)
# output: bare number, implied unit h

Query string: I would be grateful if you could share the reported half-life for CNC(=O)[C@H](C)Cn1cnc2ccc(-c3cnc(OC)c(NS(=O)(=O)c4ccc(F)cc4F)c3)cc2c1=O .
Result string: 2.61

----------
Test: Beagle dog absorption test (pharmacokinetics)
Type: in vivo, Beagle dogs
Details: both sexes, dog, plasma; male and female Beagle dogs, oral, 0.3 mg/kg, single; read-out: Cmax
Description: Beagle dogs were given the crystal form A of the compound represented by formula (I) by single or multiple oral administration and single intravenous injection respectively, with 6 dogs in each group, half male and half female. […] According to the drug plasma concentration-time curve, the pharmacokinetic parameters were calculated, the results are shown in Table 15. […]
Result type: Cmax (nM)
Note: unit nM is implicit; provide only the numeric part.

Query string: Which Cmax is reported for this compound? CNC(=O)[C@H](C)Cn1cnc2ccc(-c3cnc(OC)c(NS(=O)(=O)c4ccc(F)cc4F)c3)cc2c1=O
Result string: 158

----------
Test: Beagle dog absorption test (pharmacokinetics)
Format: in vivo, Beagle dogs
Conditions: both sexes, dog, plasma; male and female Beagle dogs, oral, 1 mg/kg once a day, day 7
Result type: Tmax at 7 days

Query string: I have this compound here, CNC(=O)[C@H](C)Cn1cnc2ccc(-c3cnc(OC)c(NS(=O)(=O)c4ccc(F)cc4F)c3)cc2c1=O , and I need its recorded Tmax at 7 days.
Result string: 1.33 h

----------
Assay: Sprague Dawley (SD) rat absorption test (pharmacokinetics)
Format: in vivo, SD rats
Settings: female, Sprague-Dawley, rat, plasma, iv, 1 mg/kg, female SD rats, vein, 1 mg/kg, single; read-out: Vdss
Result type: Vd (L/kg)
Report only the number, with the unit L/kg understood.

Query string: Look at this compound and give its reported Vd. CNC(=O)[C@H](C)Cn1cnc2ccc(-c3cnc(OC)c(NS(=O)(=O)c4ccc(F)cc4F)c3)cc2c1=O
Result string: 0.257

----------
Assay: Sprague Dawley (SD) rat absorption test (pharmacokinetics)
Type: in vivo, SD rats
Details: Sprague-Dawley, rat, plasma; male SD rats, oral, 3 mg/kg, single
Result type: bioavailability (%)
Express the result in % but write the number alone.

Query string: Reported bioavailability for CNC(=O)[C@H](C)Cn1cnc2ccc(-c3cnc(OC)c(NS(=O)(=O)c4ccc(F)cc4F)c3)cc2c1=O : what is it?
Result string: 34.7

----------
Biological target: PI3Kβ (Homo sapiens, UniProt P42338)
Sequence (P42338 whole entry, one chain of several): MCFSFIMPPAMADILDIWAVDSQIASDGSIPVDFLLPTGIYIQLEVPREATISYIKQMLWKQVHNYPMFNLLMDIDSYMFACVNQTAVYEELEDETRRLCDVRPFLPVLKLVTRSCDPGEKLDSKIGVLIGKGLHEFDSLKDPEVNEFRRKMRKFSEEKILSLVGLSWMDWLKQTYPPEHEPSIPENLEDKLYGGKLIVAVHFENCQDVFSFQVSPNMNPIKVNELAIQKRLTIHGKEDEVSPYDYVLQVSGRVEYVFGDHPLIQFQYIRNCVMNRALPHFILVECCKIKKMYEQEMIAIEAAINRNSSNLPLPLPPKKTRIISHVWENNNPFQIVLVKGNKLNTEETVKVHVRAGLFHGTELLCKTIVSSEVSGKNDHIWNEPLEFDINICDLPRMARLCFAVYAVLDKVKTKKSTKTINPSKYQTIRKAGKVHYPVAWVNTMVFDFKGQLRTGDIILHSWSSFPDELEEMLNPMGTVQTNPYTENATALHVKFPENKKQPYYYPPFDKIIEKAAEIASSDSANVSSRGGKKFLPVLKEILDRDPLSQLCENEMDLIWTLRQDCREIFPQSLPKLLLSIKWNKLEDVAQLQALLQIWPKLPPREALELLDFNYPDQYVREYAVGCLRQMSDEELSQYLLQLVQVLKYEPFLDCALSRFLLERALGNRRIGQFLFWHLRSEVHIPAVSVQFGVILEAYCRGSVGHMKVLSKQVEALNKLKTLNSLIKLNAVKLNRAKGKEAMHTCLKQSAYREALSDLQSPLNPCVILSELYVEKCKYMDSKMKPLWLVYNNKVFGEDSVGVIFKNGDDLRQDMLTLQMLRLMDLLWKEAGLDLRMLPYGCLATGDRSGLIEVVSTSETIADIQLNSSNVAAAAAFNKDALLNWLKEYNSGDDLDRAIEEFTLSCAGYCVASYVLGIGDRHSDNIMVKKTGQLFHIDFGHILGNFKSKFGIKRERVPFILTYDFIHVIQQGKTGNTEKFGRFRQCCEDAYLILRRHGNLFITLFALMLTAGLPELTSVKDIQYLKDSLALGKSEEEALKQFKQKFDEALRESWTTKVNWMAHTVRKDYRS
Result type: pIC50
Keep in mind that pIC50 stands for -log10 of concentration in molar terms.

Query string: Consider the compound CNC(=O)[C@H](C)Cn1cnc2ccc(-c3cnc(OC)c(NS(=O)(=O)c4ccc(F)cc4F)c3)cc2c1=O [Compound represented by formula (I)] and give its measured pIC50.
Result string: 6.72

----------
Test: Sprague Dawley (SD) rat absorption test (pharmacokinetics)
Format: in vivo, SD rats
Settings: Sprague-Dawley, rat, plasma, iv; male SD rats, vein, 1 mg/kg, single
Result type: C0 (µM)
Record the value in µM, omitting the unit from your answer.

Query string: Field request: C0 | item: CNC(=O)[C@H](C)Cn1cnc2ccc(-c3cnc(OC)c(NS(=O)(=O)c4ccc(F)cc4F)c3)cc2c1=O
Result string: 12.7

----------
Assay: Sprague Dawley (SD) rat absorption test (pharmacokinetics)
Type: in vivo, SD rats
Settings: female, Sprague-Dawley, rat, plasma, po, 3 mg/kg, female SD rats, single
Result type: Cmax (µM)
Answer in µM, number only, no unit symbol.

Query string: What measured Cmax goes with CNC(=O)[C@H](C)Cn1cnc2ccc(-c3cnc(OC)c(NS(=O)(=O)c4ccc(F)cc4F)c3)cc2c1=O ?
Result string: 6.39

----------
Test: Beagle dog absorption test (pharmacokinetics)
Type: in vivo, Beagle dogs
Settings: both sexes, dog, plasma; male and female Beagle dogs, oral, 1 mg/kg once a day, day 7
Result type: half-life at 7 days (h)
Respond with the bare value in h.

Query string: # get_value(readout='half-life at 7 days', item= CNC(=O)[C@H](C)Cn1cnc2ccc(-c3cnc(OC)c(NS(=O)(=O)c4ccc(F)cc4F)c3)cc2c1=O )
Result string: 5.18

----------
Assay: Sprague Dawley (SD) rat absorption test (pharmacokinetics)
Type: in vivo, SD rats
Conditions: male, Sprague-Dawley, rat, plasma, iv, 1 mg/kg, male SD rats, vein, single
Result type: AUC(0-t) (µM·h)
Express the result in µM·h but write the number alone.

Query string: Suppose we examine the compound CNC(=O)[C@H](C)Cn1cnc2ccc(-c3cnc(OC)c(NS(=O)(=O)c4ccc(F)cc4F)c3)cc2c1=O ; what AUC(0-t) value has been reported?
Result string: 17.4

----------
Assay: Beagle dog absorption test (pharmacokinetics)
Format: in vivo, Beagle dogs
Conditions: both sexes, dog, plasma, iv; male and female Beagle dogs, vein, 0.3 mg/kg, single; read-out: Vdss
Result type: Vd (L/kg)
Write it as a number; the unit L/kg goes unstated.

Query string: Which Vd value is on record for CNC(=O)[C@H](C)Cn1cnc2ccc(-c3cnc(OC)c(NS(=O)(=O)c4ccc(F)cc4F)c3)cc2c1=O ?
Result string: 2.47

----------
Molecular target: Mutant PI3Kα (H1047R) (Homo sapiens, UniProt P42336, H1047R)
Sequence (P42336 whole entry H1047R): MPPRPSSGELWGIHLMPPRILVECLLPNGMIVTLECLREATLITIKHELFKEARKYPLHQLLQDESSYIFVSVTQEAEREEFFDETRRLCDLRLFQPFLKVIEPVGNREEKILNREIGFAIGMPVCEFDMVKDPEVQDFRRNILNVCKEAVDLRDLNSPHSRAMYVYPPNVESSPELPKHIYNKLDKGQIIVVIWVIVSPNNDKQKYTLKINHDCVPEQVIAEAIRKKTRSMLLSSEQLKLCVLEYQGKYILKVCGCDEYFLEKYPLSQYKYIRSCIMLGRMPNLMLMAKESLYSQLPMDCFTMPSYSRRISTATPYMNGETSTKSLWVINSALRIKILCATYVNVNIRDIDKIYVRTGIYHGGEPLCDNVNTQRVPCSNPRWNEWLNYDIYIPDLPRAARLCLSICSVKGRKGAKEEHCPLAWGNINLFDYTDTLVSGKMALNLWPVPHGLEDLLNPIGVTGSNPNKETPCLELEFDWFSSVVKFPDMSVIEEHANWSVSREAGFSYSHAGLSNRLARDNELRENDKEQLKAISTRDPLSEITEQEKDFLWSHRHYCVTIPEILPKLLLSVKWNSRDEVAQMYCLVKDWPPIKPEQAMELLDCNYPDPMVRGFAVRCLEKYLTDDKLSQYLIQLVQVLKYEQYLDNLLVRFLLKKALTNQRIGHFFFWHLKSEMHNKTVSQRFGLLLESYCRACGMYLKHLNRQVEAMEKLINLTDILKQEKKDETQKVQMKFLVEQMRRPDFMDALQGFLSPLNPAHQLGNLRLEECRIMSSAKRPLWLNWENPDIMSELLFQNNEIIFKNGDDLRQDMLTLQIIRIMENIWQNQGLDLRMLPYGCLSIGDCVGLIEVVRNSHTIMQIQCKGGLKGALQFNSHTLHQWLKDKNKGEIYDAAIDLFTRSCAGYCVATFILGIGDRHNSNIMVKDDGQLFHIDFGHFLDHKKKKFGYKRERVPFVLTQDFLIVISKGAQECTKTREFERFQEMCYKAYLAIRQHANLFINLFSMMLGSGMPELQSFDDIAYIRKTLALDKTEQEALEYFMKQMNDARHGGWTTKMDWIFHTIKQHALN
Sequence (P27986 whole entry partner): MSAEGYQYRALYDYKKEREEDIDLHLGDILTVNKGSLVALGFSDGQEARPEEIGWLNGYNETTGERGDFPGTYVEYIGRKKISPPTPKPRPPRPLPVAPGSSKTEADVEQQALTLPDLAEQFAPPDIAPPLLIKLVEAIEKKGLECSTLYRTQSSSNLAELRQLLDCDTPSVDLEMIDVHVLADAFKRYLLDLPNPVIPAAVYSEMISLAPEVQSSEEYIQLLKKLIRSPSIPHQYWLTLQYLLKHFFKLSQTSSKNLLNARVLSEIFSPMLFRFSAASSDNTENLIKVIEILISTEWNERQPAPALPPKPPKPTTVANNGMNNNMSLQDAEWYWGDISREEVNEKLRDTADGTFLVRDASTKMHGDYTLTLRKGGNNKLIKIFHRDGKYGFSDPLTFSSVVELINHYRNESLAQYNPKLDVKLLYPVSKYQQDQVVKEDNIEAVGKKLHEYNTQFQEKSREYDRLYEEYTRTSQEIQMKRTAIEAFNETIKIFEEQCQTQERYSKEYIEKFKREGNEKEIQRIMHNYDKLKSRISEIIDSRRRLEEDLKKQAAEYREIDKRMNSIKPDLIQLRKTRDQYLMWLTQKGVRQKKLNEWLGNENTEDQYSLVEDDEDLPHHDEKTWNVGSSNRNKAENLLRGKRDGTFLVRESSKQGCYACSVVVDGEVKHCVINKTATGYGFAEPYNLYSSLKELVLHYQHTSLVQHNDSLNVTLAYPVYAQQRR
Experiment: In vitro enzymatic activity test, mutant PI3Kα (H1047R)
Type: biochemical
Result type: IC50 (pM)
// note: answer is a bare numeric in pM

Query string: # input compound: CNC(=O)[C@H](C)Cn1cnc2ccc(-c3cnc(OC)c(NS(=O)(=O)c4ccc(F)cc4F)c3)cc2c1=O ; wanted: its IC50
Result string: 690

----------
Assay: Beagle dog absorption test (pharmacokinetics)
Type: in vivo, Beagle dogs
Conditions: both sexes, dog, plasma; male and female Beagle dogs, oral, 3 mg/kg, single
Result type: half-life
Reply with the number and its unit after it.

Query string: Please look up its half-life: CNC(=O)[C@H](C)Cn1cnc2ccc(-c3cnc(OC)c(NS(=O)(=O)c4ccc(F)cc4F)c3)cc2c1=O
Result string: 393 min

----------
Experiment: Sprague Dawley (SD) rat absorption test (pharmacokinetics)
Assay type: in vivo, SD rats
Details: Sprague-Dawley, rat, plasma; female SD rats, oral, 3 mg/kg, single
Result type: bioavailability

Query string: // returns reported bioavailability for input CNC(=O)[C@H](C)Cn1cnc2ccc(-c3cnc(OC)c(NS(=O)(=O)c4ccc(F)cc4F)c3)cc2c1=O
Result string: 53.1%

----------
Assay: Beagle dog absorption test (pharmacokinetics)
Format: in vivo, Beagle dogs
Conditions: both sexes, dog, plasma, iv; male and female Beagle dogs, vein, 0.3 mg/kg, single
Result type: C0 (nM)
Please give a number only; it is taken to be in nM.

Query string: What value of measured C0 is listed for CNC(=O)[C@H](C)Cn1cnc2ccc(-c3cnc(OC)c(NS(=O)(=O)c4ccc(F)cc4F)c3)cc2c1=O ?
Result string: 512

----------
Experiment: Beagle dog absorption test (pharmacokinetics)
Type: in vivo, Beagle dogs
Settings: both sexes, beagle, dog, plasma, iv, 0.3 mg/kg, male and female Beagle dogs, vein, single
Result type: AUC(0-t)

Query string: Field request: AUC(0-t) | item: CNC(=O)[C@H](C)Cn1cnc2ccc(-c3cnc(OC)c(NS(=O)(=O)c4ccc(F)cc4F)c3)cc2c1=O
Result string: 1.47 µM·h
